Data provenance is ChEMBL document CHEMBL1201862.

# Test system: SNB-78
# method_summary: NCI tumour cell line growth inhibition, 48 h
The source made the active and inactive calls. No stated cut-off is given here; in the data, active = GI50 up to about 1.1 µM and inactive = higher.
property_name: GI50

molecule	measured_target	GI50
ClC/C=C/COC1CCCCO1 (stereo not given)	SNB-78	> 100 µM (inactive)
Cn1ncc2ccc3[nH]c4ccccc4c(=O)c3c21	SNB-78	27.7 µM (inactive)
CC1=NN(C(=O)Cc2ccccc2)C(=O)/C1=C\c1ccc([N+](=O)[O-])cc1	SNB-78	> 100 µM (inactive)
Nc1ncnc2c1ncn2C1C(O)C=C(CO)C1O (stereo not given)	SNB-78	> 625 µM (inactive)

Below: the item to evaluate.
Ask | For "Cc1cc(C)nc(NS(=O)(=O)c2ccc(NC(=O)c3cccc4c(Nc5ccc(S(=O)(=O)Nc6cc(C)on6)cc5)c5ccccc5nc34)cc2)n1" , what is its reported GI50?
Reply | 41.7 µM (inactive)

###

# Tested on: SK-MEL-28
# method_summary: NCI tumour cell line growth inhibition, 48 h
Activity calls are given as the source filed them. Cut-off read from the data, not from the text of the source: active = GI50 up to about 1.1 µM and inactive = higher.
GI50 values by entry

Reference set, count: 3
molecule	property_name	reported_measurement
COC(=O)N[C@H](C(=O)NC(OCc1ccccc1)C1COC(C)(C)O1)C(C)O[Si](C)(C)C(C)(C)C (stereo not given in full)	GI50	> 100 µM (inactive)
CC(=O)/C(=N\O)C(=O)Nc1ccc(Cl)cc1Cl	GI50	> 100 µM (inactive)
Cc1ccc2c(O)cc(-c3cc4ccccc4s3)nc2n1	GI50	> 100 µM (inactive)

Ask | For COc1cc(C)c(CC/C(C)=C/Cc2cc(O)ccc2O)c(C)c1C [PANICEIN A HYDROQUINONE] , what is its reported GI50?
Reply | > 25 µM (inactive)

Ask | For "C=CCNc1nc(C#N)c(N)s1" , what is its reported GI50?
Reply | > 10 µM (inactive)

Ask | For COC1(OC)CC2C(=O)N(Cc3ccccc3)C1C(S(=O)(=O)c1ccccc1)C2S(=O)(=O)c1ccccc1 (stereo not given) , what is its reported GI50?
Reply | 13.7 µM (inactive)

Ask | For "S=C(NN=C1NCCCN1)Nc1ccccc1" , what is its reported GI50?
Reply | > 100 µM (inactive)

Ask | For "Oc1cc(Br)cc2cccnc12" , what is its reported GI50?
Reply | 17.3 µM (inactive)

Ask | For CCOC(=O)C1(C#N)C(c2ccccc2)CC(O)(c2ccc(OC)cc2)C(C(=O)c2ccc(OC)cc2)C1c1ccccc1 (stereo not given) , what is its reported GI50?
Reply | > 100 µM (inactive)

Ask | For "Cc1nc(Nc2ccc([N+](=O)[O-])cc2)sc1C(/C=C/c1ccc(N(C)C)cc1)=N/NC(=O)c1ccccc1" , what is its reported GI50?
Reply | > 100 µM (inactive)

###

# Tested on: 786-0
# method_summary: NCI tumour cell line growth inhibition, 48 h
Calls of active or inactive are those of the source. No stated cut-off is given here; in the data, active = GI50 up to about 1.1 µM and inactive = higher.
In this exercise, the only acceptable responses are 1 (active), -1 (inactive)

Known results for compounds:
compound	assigned_class
CCOC(=O)c1c(NCc2ccccc2)n(-c2ccccc2)c(=S)n(-c2ccccc2)c1=O	-1
C=C1C(=O)O[C@@H]2/C=C(\C)CC/C=C(/COC(C)=O)C[C@@H](OC(C)=O)[C@@H]12	-1

Ask | Which outcome did this test record for the compound CC(C)SC1SCC2C(=O)N(C)C3(CC3C)C(=O)OCC(NC(=O)c3nc4ccccc4cc3O)C(=O)NC(C)C(=O)N(C)C1C(=O)N(C)C1(CC1C)C(=O)OCC(NC(=O)c1nc3ccccc3cc1O)C(=O)NC(C)C(=O)N2C (centres undefined) ?
Reply | 1

Ask | Which outcome did this test record for the compound "COc1ccc(/C(C#N)=C(/N)SCc2ccccc2Cl)cc1" ?
Reply | -1

###

# System: A549
# method_summary: NCI tumour cell line growth inhibition, 48 h
Activity calls are given as the source filed them. Rule as the data show it: active = GI50 up to about 1.1 µM and inactive = higher.
In this exercise, the only acceptable responses are 1 = active, 0 = inactive

compound	assigned_class
COc1cc(CO)cc2c1[nH]c1ccccc12	0

Ask | Which outcome did this test record for the compound "C[C@]12CC[C@H](O)C[C@H]1CC[C@@H]1[C@@H]2CC[C@]2(C)[C@@H](C3=CC(=O)OC3)[C@@H](O)C[C@]12O" ?
Reply | 1

Ask | Which outcome did this test record for the compound "CCOCc1nc2c(OC)c(-c3nc4ccc(N5CCN(C)CC5)cc4[nH]3)cc(OC)c2[nH]1" ?
Reply | 0

Ask | Which outcome did this test record for the compound C=C(C)C1Cc2c(cc(O)c3c(=O)c4ccccc4n(C)c23)O1 (stereo not given) ?
Reply | 0

Ask | Which outcome did this test record for the compound "CCCCCCCc1cscc1-c1cscc1Br" ?
Reply | 0

Ask | Which outcome did this test record for the compound "CCOC(=O)/C(ON)=C(/CC/C(C(=O)OC)=C(\ON)C(=O)OCC)C(=O)OC" ?
Reply | 0

Ask | Which outcome did this test record for the compound CCOC(=O)C1CN(C2CC2)CCC1=O (stereo not given) ?
Reply | 0

Ask | Which outcome did this test record for the compound "CCOC(=O)c1sc2nc(SC)nc(N3CCCCC3)c2c1N" ?
Reply | 0

Ask | Which outcome did this test record for the compound COc1ccccc1NC1=NCC(C)S1 (stereo not given) ?
Reply | 0

Ask | Which outcome did this test record for the compound CC1(C)CC[C@]2(C(=O)O)CC[C@]3(C)C(=CC[C@@H]4[C@@]5(C)CC[C@H](OC6OC(C(=O)O)C(O)C(O)C6O)C(C)(C)[C@@H]5CC[C@]43C)[C@@H]2C1 (stereo not given in full) ?
Reply | 0

Ask | Which outcome did this test record for the compound "CCCC1(N2C(=O)c3ccc4c5c(ccc(c35)C2=O)N(C2(CCC)CCCCC2)C4=O)CCCCC1" ?
Reply | 0

Ask | Which outcome did this test record for the compound "O=C(O/N=c1/ccc(=O)/c(=N\OC(=O)c2ccccc2)c1=O)c1ccccc1" ?
Reply | 0

Ask | Which outcome did this test record for the compound "Cn1/c(=N\c2ccc(Cl)cc2)sc2ccccc21" ?
Reply | 0

###

Observed GI50 values for HCT-15 are listed in what follows.
Reply with just the number (in µM).

Ask | Form field - read-out: GI50; system: HCT-15; submitted item: "COc1cc2c(C)cc(O)cc2c2cc(O)c(C)cc12"
Reply | 8.55

Ask | Form field - read-out: GI50; system: HCT-15; submitted item: "CC(C)(C)OC(=O)N/C=C1\C(=O)Oc2ccccc2C1=O"
Reply | 11.3

Ask | Form field - read-out: GI50; system: HCT-15; submitted item: O=C(Cc1ccccc1)N/N=C(/c1nc2ccc([N+](=O)[O-])cc2nc1O)C(O)c1ccccc1Cl (stereo not given)
Reply | 40.6

Ask | Form field - read-out: GI50; system: HCT-15; submitted item: Cc1ccc(O)c(C2=CC3=NNC(=O)C3C(c3cccc(Cl)c3)C2)c1 (stereo not given)
Reply | 30.6

###

# Test system: SK-MEL-5
# method_summary: NCI tumour cell line growth inhibition, 48 h
Activity calls are given as the source filed them. No stated cut-off is given here; in the data, active = GI50 up to about 1.1 µM and inactive = higher.
In this exercise, the only acceptable responses are true = active, false = inactive

Known results for molecules:
molecule	measured_target	assigned_class
O=C1OC(c2ccccc2)=N/C1=C/NC(Cc1ccccc1)C(=O)O (stereo not given)	SK-MEL-5	false
CCOC(=O)CCC1(C(=O)OCC)CCCCC1=O (stereo not given)	SK-MEL-5	false
N#CCN1C(=O)c2cc([N+](=O)[O-])cc3cc([N+](=O)[O-])cc(c23)C1=O	SK-MEL-5	false
N=C(N)NC(=N)Nc1c(F)c(F)c(F)c(F)c1F	SK-MEL-5	false
Nc1ccc(S(=O)(=O)Nc2cnc3ccccc3n2)cc1	SK-MEL-5	false

Ask | Which outcome did this test record for the molecule "O=C(O)CSCCc1ccccc1" ?
Reply | false

Ask | Which outcome did this test record for the molecule "CCOC(=O)Cn1nnc2ccc(Nc3nc4ccccc4nc3-c3ccccc3)cc21" ?
Reply | false

Ask | Which outcome did this test record for the molecule COc1cccc(C2c3cc4c(cc3OC(N3CCOCC3)C2C)OCO4)c1 (stereo not given) ?
Reply | false

Ask | Which outcome did this test record for the molecule "Cc1c(C(=O)C/C(=N/NC(=O)c2ccccc2O)C(=O)Nc2ccccc2C(C)C)[n+]([O-])c2ccccc2[n+]1[O-]" ?
Reply | false

Ask | Which outcome did this test record for the molecule COc1cc(C2C3=C(COC3=O)Oc3cc4c(cc32)OCO4)cc(OC)c1OC(C)=O (stereo not given) ?
Reply | true

Ask | Which outcome did this test record for the molecule "O=c1[nH]/c(=C/c2ccc(OCc3ccccc3)cn2)c(=O)[nH]/c1=C/c1cccnc1" ?
Reply | true

Ask | Which outcome did this test record for the molecule "Cn1c(=O)c2nc(SCCN3CCOCC3)[nH]c2n(C)c1=S" ?
Reply | false

Ask | Which outcome did this test record for the molecule "O=c1cc(O)c1=O" ?
Reply | false

Ask | Which outcome did this test record for the molecule CC1(c2cccc(N)c2)C2C(=O)NC(=O)C1C(=O)NC2=O (stereo not given) ?
Reply | false

Ask | Which outcome did this test record for the molecule CCC(=O)C(C)C1=Nc2nnc(CCCCCCCc3nnc4n3C(=O)C(C(C)C(=O)CC)=N4)n2C1=O (stereo not given) ?
Reply | false
